Field: IC50. Provide a value for each of the compounds that follow.
- study system: AR (Homo sapiens, UniProt P10275)
- Construct: expressed in transfected cells; host or cells: CV1 cells
- method summary: Reporter gene assay, AR transcriptional (MMTV-Luc) in CV1 cells
- Format: cell-based
- assay conditions: pcDNA-AR + MMTV-Luc, 0.1 nM R1881 plus test compound, 24 hrs, read-out: B1 = AR transcriptional IC50 (μM) in CV1 cells
Numbers only, in µM.

As a guide, the following entries are already answered.
compound	value reported
CC1(C)CC(=O)C2=C(C1)Nc1ccc3nccnc3c1C2c1cc2ccccc2s1 (racemic)	1.2
Cc1ccc(C2C3=C(CC(C)(C)CC3=O)Nc3ccc4ccccc4c32)s1 (centres unmarked)	0.8
CC1CC(=O)C2=C(C1)Nc1ccc3ccccc3c1C2c1ccc(F)cc1 (centres unmarked)	2.6

Batch of 3 compounds: report IC50 for each.
1. CC1(C)CC(=O)C2=C(C1)Nc1ccc3ccccc3c1C2c1ccc(Cl)c([N+](=O)[O-])c1 (centres unmarked)
2. CC1(C)CC(=O)C2=C(C1)Nc1ccc3ccccc3c1C2c1ccc([N+](=O)[O-])cc1 (centres unmarked)
3. CC1(C)CC(=O)C2=C(C1)Nc1ccc3ncccc3c1C2c1ccc(C(=O)O)cc1 (centres unmarked)

A.
3.8
1.2
38

----------
- study system: AR (Homo sapiens, UniProt P10275)
- Construct: expressed in transfected cells; host or cells: CV1 cells
- Sequence (P10275 1-920): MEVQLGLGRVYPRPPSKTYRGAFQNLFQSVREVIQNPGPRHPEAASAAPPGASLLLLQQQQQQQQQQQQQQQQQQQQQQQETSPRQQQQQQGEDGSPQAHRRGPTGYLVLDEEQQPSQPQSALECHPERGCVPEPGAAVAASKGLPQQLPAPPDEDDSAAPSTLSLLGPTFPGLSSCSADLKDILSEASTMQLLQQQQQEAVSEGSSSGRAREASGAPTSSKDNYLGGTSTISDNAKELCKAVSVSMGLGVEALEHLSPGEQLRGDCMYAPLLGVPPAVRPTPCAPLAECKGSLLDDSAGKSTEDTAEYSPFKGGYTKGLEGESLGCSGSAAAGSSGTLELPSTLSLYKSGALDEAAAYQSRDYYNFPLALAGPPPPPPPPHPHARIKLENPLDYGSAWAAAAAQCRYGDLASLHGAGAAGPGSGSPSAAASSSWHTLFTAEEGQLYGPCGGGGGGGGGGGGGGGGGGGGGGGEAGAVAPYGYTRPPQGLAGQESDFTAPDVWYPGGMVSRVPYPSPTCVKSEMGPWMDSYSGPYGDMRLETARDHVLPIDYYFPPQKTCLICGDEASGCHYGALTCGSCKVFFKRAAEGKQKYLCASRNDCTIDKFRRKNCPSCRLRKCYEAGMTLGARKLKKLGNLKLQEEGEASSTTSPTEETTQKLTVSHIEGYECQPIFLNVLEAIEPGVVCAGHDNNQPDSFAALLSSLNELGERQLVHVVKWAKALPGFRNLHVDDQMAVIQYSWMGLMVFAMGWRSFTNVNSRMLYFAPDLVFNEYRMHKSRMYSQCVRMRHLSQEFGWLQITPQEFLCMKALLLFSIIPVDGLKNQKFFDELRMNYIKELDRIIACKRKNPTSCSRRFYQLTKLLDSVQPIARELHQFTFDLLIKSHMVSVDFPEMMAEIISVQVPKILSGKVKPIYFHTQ
- method summary: Reporter gene assay, AR transcriptional (MMTV-Luc) in CV1 cells
- Type: cell-based
- assay conditions: pcDNA-AR + MMTV-Luc, 0.1 nM R1881 plus test compound, 24 hrs, read-out: B1 = AR transcriptional IC50 (μM) in CV1 cells
Threshold check on IC50: strictly below 0.8 µM is true (1); on or above 0.8 µM is false (0).

See these solved cases before continuing.
compound	group label
Cc1ccsc1C1C2=C(CC(C)(C)CC2=O)Nc2ccc3nccnc3c21 (stereo not shown)	false (0)
CC1(C)CC(=O)C2=C(C1)Nc1ccc3ncccc3c1C2c1cc2ccccc2s1 (racemic)	false (0)
Cc1ccc(C2C3=C(CC(C)(C)CC3=O)Nc3ccc4ncccc4c32)s1 (racemic)	true (1)
CC1(C)CC(=O)C2=C(C1)Nc1cc(N3CCCC3)ccc1C2c1ccc(Cl)s1 (racemic)	false (0)

Q. Would you kindly verify if IC50 of CC1(C)CC(=O)C2=C(C1)Nc1ccc3ncccc3c1C2c1cc(Br)c(Br)s1 (stereo not shown) is strictly less than 0.8 µM?
A. false (0)
